# Tested on: CEM cells HIV-1 protection, formazan growth assay
# method.notes: NCI AIDS Antiviral Assay
pEC50: −log10 of the molar value.
For each record, write down the corresponding pEC50.

Each compound below has a reported value. Please supply its pEC50.
1. Cc1ccc(SC(=O)N2C(=S)NC(=NC3CCCCC3)C23CCCCC3)cc1
2. Cc1ccc(Nc2nc(-c3ccc(-c4ccc([N+](=O)[O-])cc4)o3)cs2)cc1
3. O=c1oc2cccnc2n1CCCCN1CCN(c2ccccc2)CC1
4. CN(C)c1ccc(/C=C2\C=Cc3ccccc32)c(F)c1
5. Cc1cc(-c2cccs2)oc(=O)c1NC(=O)c1cnccn1
6. CC(C)(C)OC(=O)CN1CCNCCN(CC(=O)OC(C)(C)C)CCNCC1

Marked response:
["< 3.70", "< 5.00", "< 3.70", "< 4.85", "< 3.70", "< 3.70"]
